All values here come from ChEMBL document CHEMBL4020701.

Molecular target: UniProtKB P49327
Assay: Inhibition of human FAS thioster domain preincubated for 30 mins followed by 4-methylumbelliferyl heptanoate substrate addition measured every 5 mins for 60 mins by fluorescence assay
Field: class. Source value: IC50. Ranges: I: < 3 µM; II: ≥ 3 µM and < 5 µM; III: ≥ 5 µM

[[record]]
structure_smiles = "CCCCCC[C@@H]1C(=O)O[C@H]1C(=O)NCCC[C@H](NC(=O)[C@H](C)NC(=O)OCc1ccccc1)C(=O)OCc1ccccc1"
assigned_label = "II"

[[record]]
structure_smiles = "CCCCCC[C@@]1(C)C(=O)O[C@@H]1C(=O)NCCCC[C@H](NC(=O)[C@H](C)NC(=O)OCc1ccccc1)C(=O)OCc1ccccc1"
assigned_label = "II"

[[record]]
structure_smiles = "CCCCCC[C@@H]1C(=O)O[C@H]1C(=O)NCCCC[C@H](NC(=O)[C@H](C)NC(=O)c1ccc(Br)cc1)C(=O)OCc1ccccc1"
assigned_label = "II"

[[record]]
structure_smiles = "C#Cc1ccc(COC(=O)[C@H](C)NC(=O)[C@H](CCCCNC(=O)[C@@H]2OC(=O)[C@H]2CCCCCC)NC(=O)OCc2ccccc2)cc1"
assigned_label = "II"


Input line: Hey, which category is CCCCCC[C@H]1C(=O)O[C@@H]1C(=O)NCCCC[C@H](NC(=O)OCc1ccccc1)C(=O)N[C@@H](C)C(=O)OCc1ccccc1 in, do you know?
Output line: III

Input line: Given CCCCCC[C@@]1(C)C(=O)O[C@H]1C(=O)NCCCC[C@H](NC(=O)[C@H](C)NC(=O)OCc1ccccc1)C(=O)OCc1ccccc1 , name the class its IC50 places it in.
Output line: I

====

Target: Proteasome Macropain subunit MB1 (Homo sapiens, UniProt P28074)
Sequence (P28074 whole entry): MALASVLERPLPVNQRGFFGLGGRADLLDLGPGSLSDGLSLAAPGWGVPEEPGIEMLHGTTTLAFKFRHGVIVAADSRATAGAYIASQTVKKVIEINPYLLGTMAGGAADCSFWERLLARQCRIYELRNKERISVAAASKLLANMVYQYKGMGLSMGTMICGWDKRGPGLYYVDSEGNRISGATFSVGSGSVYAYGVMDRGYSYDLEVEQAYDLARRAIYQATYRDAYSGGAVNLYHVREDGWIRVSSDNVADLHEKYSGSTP
Test: Inhibition of chymotrypsin-like activity of 20S proteasome in human red blood cells pretreated for 20 mins followed by Suc-Leu-Leu-Val-Tyr-AMC substrate addition by fluorescence assay
# strict inequality: IC50 < 700 nM yields MET, everything else yields NOT MET

[[record]]
structure_smiles = "C#Cc1ccc(COC(=O)[C@H](C)NC(=O)[C@H](CCCCNC(=O)[C@@H]2OC(=O)[C@H]2CCCCCC)NC(=O)OCc2ccccc2)cc1"
assigned_label = "MET"

[[record]]
structure_smiles = "CCCCCCCCCCC[C@@H](C[C@@H]1OC(=O)[C@H]1CCCCCC)OC(=O)[C@H](CC(C)C)NC=O"
assigned_label = "NOT MET"

[[record]]
structure_smiles = "CCCCCC[C@@H]1C(=O)O[C@H]1C(=O)NCCCC[C@@H]1NC(=O)N([C@@H](C)C(=O)OCc2ccccc2)C1=O"
assigned_label = "MET"

[[record]]
structure_smiles = "CCCCCC[C@H]1C(=O)O[C@@H]1C(=O)NCCCC[C@H](NC(=O)OCc1ccccc1)C(=O)N[C@@H](C)C(=O)OCc1ccccc1"
assigned_label = "NOT MET"


// switching to the query compound
Input line: Please let me know if CCCCCC[C@@H]1C(=O)O[C@H]1C(=O)NCCCC[C@H](NC(=O)OCc1ccccc1)C(=O)N[C@@H](C)C(=O)OCc1ccccc1 shows IC50 below 700 nM.
Output line: MET

====

Target: Fatty acid synthase (Homo sapiens)
Sequence (P49327 whole entry, the tested form may be a part): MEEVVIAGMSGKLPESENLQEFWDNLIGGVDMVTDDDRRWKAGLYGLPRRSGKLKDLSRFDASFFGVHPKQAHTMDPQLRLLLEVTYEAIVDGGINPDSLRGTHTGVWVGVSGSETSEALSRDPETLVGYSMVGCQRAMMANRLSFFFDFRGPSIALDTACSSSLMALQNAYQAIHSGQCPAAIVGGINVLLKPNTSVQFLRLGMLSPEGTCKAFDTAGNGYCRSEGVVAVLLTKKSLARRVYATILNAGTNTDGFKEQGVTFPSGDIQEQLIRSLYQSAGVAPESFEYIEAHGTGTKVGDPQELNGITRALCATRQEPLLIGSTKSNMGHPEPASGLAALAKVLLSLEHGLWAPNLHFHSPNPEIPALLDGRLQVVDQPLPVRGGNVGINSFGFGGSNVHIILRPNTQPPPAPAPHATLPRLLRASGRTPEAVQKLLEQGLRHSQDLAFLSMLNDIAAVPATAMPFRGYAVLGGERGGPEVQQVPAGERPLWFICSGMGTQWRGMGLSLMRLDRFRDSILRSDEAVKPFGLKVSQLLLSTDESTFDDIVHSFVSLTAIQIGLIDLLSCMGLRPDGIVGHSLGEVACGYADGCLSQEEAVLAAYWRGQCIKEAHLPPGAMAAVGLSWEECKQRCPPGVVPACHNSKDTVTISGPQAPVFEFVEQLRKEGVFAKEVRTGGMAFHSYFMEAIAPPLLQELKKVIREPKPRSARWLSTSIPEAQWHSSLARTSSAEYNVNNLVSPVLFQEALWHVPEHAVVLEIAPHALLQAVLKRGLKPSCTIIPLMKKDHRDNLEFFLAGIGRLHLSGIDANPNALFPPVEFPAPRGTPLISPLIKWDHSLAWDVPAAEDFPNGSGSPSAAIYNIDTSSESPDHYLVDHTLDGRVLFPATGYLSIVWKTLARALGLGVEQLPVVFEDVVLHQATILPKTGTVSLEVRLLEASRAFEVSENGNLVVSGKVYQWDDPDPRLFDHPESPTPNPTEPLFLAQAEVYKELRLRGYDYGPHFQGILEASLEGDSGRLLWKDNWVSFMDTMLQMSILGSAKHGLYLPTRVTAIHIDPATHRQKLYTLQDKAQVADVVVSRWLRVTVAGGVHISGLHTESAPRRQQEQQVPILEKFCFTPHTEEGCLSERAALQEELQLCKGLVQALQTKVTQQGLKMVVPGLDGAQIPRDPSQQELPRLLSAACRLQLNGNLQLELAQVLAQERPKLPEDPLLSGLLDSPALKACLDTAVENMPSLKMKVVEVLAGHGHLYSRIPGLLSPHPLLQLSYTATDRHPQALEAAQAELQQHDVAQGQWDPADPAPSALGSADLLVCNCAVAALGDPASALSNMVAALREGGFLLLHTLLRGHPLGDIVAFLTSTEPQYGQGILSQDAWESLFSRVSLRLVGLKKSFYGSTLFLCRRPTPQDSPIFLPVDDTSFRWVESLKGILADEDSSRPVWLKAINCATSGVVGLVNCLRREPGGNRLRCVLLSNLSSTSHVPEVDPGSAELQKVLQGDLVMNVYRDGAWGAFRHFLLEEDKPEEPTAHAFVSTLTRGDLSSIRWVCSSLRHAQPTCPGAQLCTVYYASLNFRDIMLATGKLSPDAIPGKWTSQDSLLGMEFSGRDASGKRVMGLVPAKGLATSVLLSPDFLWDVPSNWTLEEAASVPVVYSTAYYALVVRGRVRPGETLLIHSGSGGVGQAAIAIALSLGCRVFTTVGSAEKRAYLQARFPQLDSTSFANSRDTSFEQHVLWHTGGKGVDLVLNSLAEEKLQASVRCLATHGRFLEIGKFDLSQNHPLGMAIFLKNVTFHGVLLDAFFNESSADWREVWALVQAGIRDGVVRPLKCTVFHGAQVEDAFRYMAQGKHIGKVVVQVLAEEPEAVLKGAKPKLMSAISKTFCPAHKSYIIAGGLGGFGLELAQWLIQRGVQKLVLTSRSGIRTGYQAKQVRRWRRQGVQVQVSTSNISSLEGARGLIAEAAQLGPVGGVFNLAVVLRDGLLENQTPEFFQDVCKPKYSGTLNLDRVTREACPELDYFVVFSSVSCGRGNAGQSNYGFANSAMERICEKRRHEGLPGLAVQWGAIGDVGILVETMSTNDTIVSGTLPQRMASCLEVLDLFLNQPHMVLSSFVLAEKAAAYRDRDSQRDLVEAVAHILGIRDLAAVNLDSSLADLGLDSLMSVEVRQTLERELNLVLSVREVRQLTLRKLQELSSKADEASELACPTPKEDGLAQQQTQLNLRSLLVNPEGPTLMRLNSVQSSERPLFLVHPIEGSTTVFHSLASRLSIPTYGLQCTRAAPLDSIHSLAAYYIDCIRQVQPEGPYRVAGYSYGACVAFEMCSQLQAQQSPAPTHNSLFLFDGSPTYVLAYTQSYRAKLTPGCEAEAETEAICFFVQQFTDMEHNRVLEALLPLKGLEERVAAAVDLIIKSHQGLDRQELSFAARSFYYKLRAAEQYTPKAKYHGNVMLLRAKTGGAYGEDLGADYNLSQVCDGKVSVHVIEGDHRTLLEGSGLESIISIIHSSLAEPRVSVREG
Assay: Inhibition of human FAS thioster domain preincubated for 30 mins followed by 4-methylumbelliferyl heptanoate substrate addition measured every 5 mins for 60 mins by fluorescence assay
Reported endpoint: pIC50
Numbers only, as −log10 of the molar value.

[[record]]
structure_smiles = "CCCCCC[C@@H]1C(=O)O[C@H]1C(=O)NCCCC[C@H](NC(=O)OCc1ccccc1)C(=O)N[C@@H](C)C(=O)OCc1ccccc1"
assay_system = "Fatty acid synthase (Homo sapiens)"
reported_endpoint = "pIC50"
numeric_value = 5.82

[[record]]
structure_smiles = "CCCCCC[C@]1(C)C(=O)O[C@H]1C(=O)NCCCC[C@H](NC(=O)[C@H](C)NC(=O)OCc1ccccc1)C(=O)OCc1ccccc1"
assay_system = "Fatty acid synthase (Homo sapiens)"
reported_endpoint = "pIC50"
numeric_value = 5.58


Continue with the compound presented below.
Input line: Reported pIC50, compound CCCCCC[C@@H]1C(=O)O[C@H]1C(=O)NCCCC[C@@H]1NC(=O)N([C@@H](C)C(=O)OCc2ccccc2)C1=O : ____
Output line: 5.26
